Hello, the source for this data is the supplement of paper PMC5908809, in case you need it.

Provide the recorded percent inhibition of viability for the entries that follow.
Tested on: KAI3 (IL-2 2.5 ng/mL)
Experiment: percent inhibition of viability; higher = more inhibition;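 note: normalised to DMSO-only wells as negative and benzethonium chloride as positive control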
Conditions: 72 h; 0.25 nM
Supply the numeric figure in %, leaving out any unit text.

Prompt line: Name the recorded percent inhibition of viability of the item CCOc1ccn(-c2ccc(F)cc2)c(=O)c1C(=O)Nc1ccc(Oc2ccnc(N)c2Cl)c(F)c1 (max concentration tested 2500 nM) in your answer.
Response line: -2.82

Prompt line: Name the recorded percent inhibition of viability of the item CC(C)(O)CC(=O)NCCn1ccc2ncnc(Nc3ccc(Oc4cccc(C(F)(F)F)c4)c(Cl)c3)c21 [TAK-285] (max concentration tested 2500 nM) in your answer.
Response line: 3.24

Prompt line: Name the recorded percent inhibition of viability of the item CC(=O)Nc1cccc(-n2c(=O)n(C3CC3)c(=O)c3c(Nc4ccc(I)cc4F)n(C)c(=O)c(C)c32)c1 [Trametinib] (max concentration tested 250 nM) in your answer.
Response line: 10.4

Prompt line: Name the recorded percent inhibition of viability of the item Cn1cc(-c2cnn3c(N)c(Br)c([C@@H]4CCCNC4)nc23)cn1 [MK-8776] (max concentration tested 2500 nM) in your answer.
Response line: 3.31

Prompt line: Name the recorded percent inhibition of viability of the item O=C(Nc1ccc(OC(F)(F)F)cc1)c1sccc1NCc1ccnc2ccccc12 [OSI-930] (max concentration tested 2500 nM) in your answer.
Response line: 3.63

----------
Test system: KHYG-1 (IL-2 2.5 ng/mL)
Test: percent inhibition of viability; higher = more inhibition
Conditions: 72 h; 1000 nM
measured metric: percent inhibition of viability (%)
Supply the numeric figure in %, leaving out any unit text.

Prompt line: Under KHYG-1 (IL-2 2.5 ng/mL), report percent inhibition of viability for N#Cc1ccc(C(c2ccc(C#N)cc2)n2cncn2)cc1 [Letrozole] (max concentration tested 10000 nM)
Response line: -1.07

Prompt line: Under KHYG-1 (IL-2 2.5 ng/mL), report percent inhibition of viability for Cc1cc(C)c(/C=C2\C(=O)Nc3ccccc32)[nH]1 [Semaxanib] (max concentration tested 10000 nM)
Response line: 6.34

Prompt line: Under KHYG-1 (IL-2 2.5 ng/mL), report percent inhibition of viability for CS(=O)(=O)OCCCCOS(C)(=O)=O [Busulfan] (max concentration tested 100000 nM)
Response line: -2.89

Prompt line: Under KHYG-1 (IL-2 2.5 ng/mL), report percent inhibition of viability for CNC(=O)c1ccc(N2C(=S)N(c3ccc(C#N)c(C(F)(F)F)c3)C(=O)C23CCC3)cc1F [RD162] (max concentration tested 10000 nM)
Response line: 2.74

Prompt line: Under KHYG-1 (IL-2 2.5 ng/mL), report percent inhibition of viability for CCCS(=O)(=O)Nc1ccc(F)c(C(=O)c2c[nH]c3ncc(-c4ccc(Cl)cc4)cc23)c1F [Vemurafenib] (max concentration tested 10000 nM)
Response line: 42.5

Prompt line: Under KHYG-1 (IL-2 2.5 ng/mL), report percent inhibition of viability for O=C(Nc1ccc(-c2ccnc(Nc3ccc(N4CCOCC4)cc3)n2)cc1)C1CCCN1 (stereo not drawn) [XL019] (max concentration tested 10000 nM)
Response line: 6.64

Prompt line: Under KHYG-1 (IL-2 2.5 ng/mL), report percent inhibition of viability for O=C(Nc1cccnc1)N1CCC(Cc2cccc(Oc3ccc(C(F)(F)F)cn3)c2)CC1 [PF-3845] (max concentration tested 10000 nM)
Response line: 4.55

Prompt line: Under KHYG-1 (IL-2 2.5 ng/mL), report percent inhibition of viability for CNC(=O)c1cc(Oc2ccc(NC(=O)Nc3ccc(Cl)c(C(F)(F)F)c3)c(F)c2)ccn1 [Regorafenib] (max concentration tested 10000 nM)
Response line: 11.2

Prompt line: Under KHYG-1 (IL-2 2.5 ng/mL), report percent inhibition of viability for FC(F)c1nc2ccccc2n1-c1nc(N2CCOCC2)nc(N2CCOCC2)n1 [ZSTK474] (max concentration tested 10000 nM)
Response line: 17.9

Prompt line: Under KHYG-1 (IL-2 2.5 ng/mL), report percent inhibition of viability for NC(=O)N1CCC(CC(=O)N2CCC([C@H]3c4ncc(Br)cc4CCc4cc(Cl)cc(Br)c43)CC2)CC1 [Lonafarnib] (max concentration tested 10000 nM)
Response line: 67.6

Prompt line: Under KHYG-1 (IL-2 2.5 ng/mL), report percent inhibition of viability for CNC(=O)c1ccc(-c2cnc3ncc(Cc4ccc5ncccc5c4)n3n2)cc1F [NVP-INC280] (max concentration tested 1000 nM)
Response line: 7.71

Prompt line: Under KHYG-1 (IL-2 2.5 ng/mL), report percent inhibition of viability for Nc1nccc(-c2c(-c3ccc(F)cc3)ncn2C2CCCCC2)n1 (max concentration tested 10000 nM)
Response line: 3.42

Prompt line: Under KHYG-1 (IL-2 2.5 ng/mL), report percent inhibition of viability for C[C@@H](Oc1cc(-n2cnc3ccc(CN4CCN(C)CC4)cc32)sc1C(N)=O)c1ccccc1C(F)(F)F (max concentration tested 10000 nM)
Response line: 104
